FYI, the data here is from paper PMC9619220.

STUDY_SYSTEM: TgPDE1 (Toxoplasma gondii)
Construct: gene TGRH88_036470; native smHA-tagged TgPDE1 immunoprecipitated from tachyzoites
TEST_NAME: colorimetric PDE assay on immunoprecipitated enzyme, dose-response (cAMP hydrolysis)
Format: biochemical
OUTCOME_MEASURE: IC50
A complete answer gives the number followed by the unit.

State its IC50: CCCOc1ccccc1-c1nc2nn[nH]c2c(=O)[nH]1
1490 nM
